Measured Papp A→B at 180 min of individual entries
Experiment: Caco-2 membrane permeability, improved method as used in the following Examples (96-well, 20 to 24 h preincubation)
Format: in vitro ADME
Conditions: human, Caco-2, Caco-2
Starred links: 1 amine or outer side, 2 acyl side, 3 side chain; linkers in the order of their positions; H or OH if unused. Positions of bridges follow the written chain, without caps; N, C: chain ends. Non-standard residues stand in square brackets, D forms with d. Residues, ends and D or L forms follow the SMILES beside them. *: point of attachment. X4 = O=C([C@@H]1C[C@@H](N2CCC(F)(F)CC2)CN1[*:1])[*:2]; X6 = CN([C@@H](CCN1CCC(F)(F)CC1)C(=O)[*:2])[*:1]; hNle(7,7-F2) = N[C@@H](CCCCC(F)F)C(=O)O; X3 = O=C([C@H](CCCCO)N[*:1])[*:2]; NMeF = CN[C@@H](Cc1ccccc1)C(=O)O; NMeL = CN[C@@H](CC(C)C)C(=O)O; NMeV = CN[C@H](C(=O)O)C(C)C; NMeA = CN[C@@H](C)C(=O)O; Piperidide = C1CCN(*)CC1; NBuGly = CCCCNCC(=O)O; Sar = CNCC(=O)O; tBu = CC(C)(C)*
The reply should contain only the number, in ×10⁻⁶ cm/s.

Here are 3 compounds together with their reported answers.
[[record]]
compound = "CC(C)C[C@H]1C(=O)N[C@H](C(=O)N2CCCCC2)CC(=O)N(C)[C@@H](C)C(=O)N[C@@H](C(C)C)C(=O)N(C)[C@@H](CC(C)C)C(=O)N(C)[C@@H](Cc2ccccc2)C(=O)N[C@@H](C(C)C)C(=O)N(C)[C@@H](Cc2ccccc2)C(=O)N(C)[C@@H](CC(C)C)C(=O)N[C@@H](CCCCO)C(=O)N(C)CC(=O)N1C [pd448] ([NMeA]V[NMeL][NMeF]V[NMeF][NMeL][X3][Sar][NMeL]D-Piperidide; lactam N-11)"
unit_label = "×10⁻⁶ cm/s"
number = 1.3

[[record]]
compound = "CC(C)C[C@H]1C(=O)N[C@@H](COC(C)(C)C)C(=O)N(C)[C@@H](Cc2ccccc2)C(=O)N(C)[C@@H](C(C)C)C(=O)N[C@H](C(=O)N2CCCCC2)CC(=O)N[C@H](C(C)C)C(=O)N(C)[C@@H](Cc2ccccc2)C(=O)N[C@@H](CCCCC(F)F)C(=O)N(C)[C@@H](CC(C)C)C(=O)N[C@@H]([C@@H](C)O)C(=O)N(C)CC(=O)N1C [pd331] ([dV][NMeF][hNle(7,7-F2)][NMeL]T[Sar][NMeL]S(tBu)[NMeF][NMeV]D-Piperidide; lactam N-11)"
unit_label = "×10⁻⁶ cm/s"
number = 2.1

[[record]]
compound = "CC(C)C[C@H]1C(=O)N(C)[C@@H](CC(C)C)C(=O)N(C)[C@@H](CC(C)C)C(=O)N(C)[C@@H](Cc2ccccc2)C(=O)N[C@@H]([C@@H](C)O)C(=O)N(C)[C@@H](Cc2ccccc2)C(=O)N(C)[C@@H](CC(C)C)C(=O)N2C[C@H](N3CCC(F)(F)CC3)C[C@H]2C(=O)N[C@H](C(=O)N2CCCCC2)CC(=O)N[C@@H](C(C)C)C(=O)NCC(=O)N1C [pd460] (VG[NMeL][NMeL][NMeL][NMeF]T[NMeF][NMeL][X4]D-Piperidide; lactam N-11)"
unit_label = "×10⁻⁶ cm/s"
number = 1.2


Below: the item to evaluate.
Which Papp A→B at 180 min value is on record for CCCCN1CC(=O)N(C)[C@@H](CC(C)C)C(=O)N[C@@H](CC(C)C)C(=O)N(C)[C@@H](Cc2ccccc2)C(=O)N(C)[C@@H](C)C(=O)N[C@H](C(=O)N2CCCCC2)CC(=O)N[C@H](C(C)C)C(=O)N(C)[C@@H](Cc2ccccc2)C(=O)N[C@@H](CC(C)C)C(=O)N(C)[C@@H](CCN2CCC(F)(F)CC2)C(=O)N[C@@H]([C@@H](C)O)C1=O [pd394] ([dV][NMeF]L[X6]T[NBuGly][NMeL]L[NMeF][NMeA]D-Piperidide; lactam N-11) ? 1.8

Where do these numbers come from? They come from patent US20200131669A1.
